- System: NCI-H226 lung
- Test Details: NCI-60 one-dose screen, 48 h (100 = growth as untreated, 0 = no growth, -100 = all killed)
- Condition Notes: 10 µM unless noted
The panel holds about 83,000 compounds, 20% with a hit somewhere; the sample as a whole holds those more often.
Readout Kind: growth (%)

INSERT INTO results (molecule, unit_of_measurement, reading) VALUES
  ('NC(=NC1C2CC3CC(C2)CC1C3)Nc1ccc(I)cc1 (stereo not drawn)', '%', 84.7),
  ('O=c1c(F)cn(Cc2ccccc2CCl)c(=O)n1Cc1ccccc1CCl', '%', -22),
  ('Cn1c(=O)[nH]c(=O)c2nc(CCC(=O)NCCC(=O)O)c(=O)[nH]c21', '%', 88.3);

====

- Tested on: MDA-MB-231 breast
- Test Details: NCI-60 one-dose screen, 48 h
- Condition Notes: 10 µM unless noted
Compounds without any hit were thinned out: in the full panel of roughly 83,000, 20% have a hit. Calls of active or inactive are those of the source. How the source made its calls: active means growth percent below 10; inactive means the rest.
Possible outcomes: active, inactive

INSERT INTO assay_data (compound, label_value) VALUES
  ('COc1ccc2c(c1)C(=O)/C(=C/c1cccnc1)CC2', 'inactive'),
  ('CC(C)CC1C(=O)N2CCC[C@H]2C2(O)O[C@](NC(=O)C3C=C4c5cccc6[nH]c(Br)c(c56)C[C@H]4N(C)C3)(C(C)C)C(=O)N12 (some centres undefined)', 'inactive'),
  ('C=C1C(=O)O[C@H]2[C@H]1CC/C(COC(=O)NCCc1ccc(OC)c(OC)c1)=C\CC[C@@]1(C)O[C@@H]21', 'inactive'),
  ('O=C1/C(=C/c2ccccc2)SC(=S)N1CCc1ccc(O)cc1', 'inactive'),
  ('COc1ccc2c(c1)c(-c1nonc1-c1cn(C)c3ccccc13)cn2C', 'inactive'),
  ('CN(C)c1ccc(NC(=O)c2ccc(/C=C/C(=O)c3ncc[nH]3)cc2)cc1', 'inactive'),
  ('NC(=NCCCOc1ccc(Cl)cc1)Nc1ccc(C(F)(F)F)cc1', 'inactive'),
  ('COc1ccc(NC(=O)c2ccc(/C=C/C(=O)c3ncc[nH]3)cc2)cc1', 'inactive'),
  ('CC(C)(C)CC(C)(C)c1ccc(OCCOCC[N+](C)(C)Cc2ccccc2)cc1', 'active'),
  ('COc1ccc(-c2cc(=O)c3c(OC)c4ccoc4cc3o2)cc1', 'inactive'),
  ('O=C1c2cc3c(cc2-c2c1c1ccc(F)cc1c(=O)n2CCCNCCO)OCO3', 'active'),
  ('O=S(=O)(Nc1ccc(NS(=O)(=O)c2ccccc2)c(Cl)c1)c1ccccc1', 'inactive'),
  ('CCc1c(Nc2ccccc2C)nc(N)[nH]c1=O', 'inactive'),
  ('COc1cccc(-c2nc3sccn3c2-c2ccnc(NCCNS(=O)(=O)c3ccc(F)cc3)c2)c1', 'inactive'),
  ('O=[N+]([O-])c1cnc(N2CCN(CC3CC3)CC2)nc1N1CCN(CC2CC2)CC1', 'inactive'),
  ('CCCOc1ccc2nc(NC(=O)OC)[nH]c2c1', 'active'),
  ('FC(F)(F)c1ccc(-c2cn3nc(-c4c[nH]c5ccc(Br)cc45)sc3n2)cc1', 'inactive'),
  ('C=C(C)[C@@H]1CC[C@]2(C(=O)OC)CC[C@]3(C)[C@H](CC[C@@H]4[C@@]5(C)C/C(=C/c6ccc(OC)cc6)C(=O)C(C)(C)[C@@H]5CC[C@]43C)[C@@H]12', 'inactive'),
  ('CCN(CC)c1ccc(/C=N\NC(=O)/C=C/C=C/c2ccc3c(c2)OCO3)c(O)c1', 'inactive'),
  ('N#Cc1c(-c2ccc(Cl)cc2)nc(NN=Cc2ccco2)nc1N1CCOCC1', 'inactive'),
  ('CC(=O)OC[C@H]1O[C@H](OC(C)=O)[C@H](NC(=O)/C=C/CCl)[C@@H](OC(C)=O)[C@@H]1OC(C)=O', 'inactive'),
  ('COc1ccc(-c2nc(SCC(=O)Nc3ccc(C(=O)/C=C/c4ccc(Cl)cc4)cc3)[nH]c(=O)c2C#N)cc1', 'inactive'),
  ('O=c1c(F)cn(Cc2ccccc2CCl)c(=O)n1Cc1ccccc1CCl', 'active'),
  ('COc1ccc2[nH]cc(-c3noc(C(=O)c4cn(C)c5ccc(F)cc45)n3)c2c1', 'inactive'),
  ('O=S(=O)(Nc1ccc(Br)c(Cl)c1)c1ccc(-c2cnc(C3CC3)o2)cc1', 'inactive'),
  ('OCCNc1nccc(N2CCN(c3ccnc4cc(Cl)ccc34)CC2)n1', 'inactive'),
  ('Cn1cc(-c2nonc2-c2cn(C)c3ccc(F)cc23)c2cc(F)ccc21', 'inactive'),
  ('O=C(Oc1cccnc1)c1ccsc1Nc1ccnc(C(F)(F)F)c1', 'inactive'),
  ('Cn1cc(C(=O)c2nc(-c3c[nH]c4ccc(F)cc34)no2)c2cc(F)ccc21', 'inactive');

====

- System: A498 renal
- Test Details: NCI-60 one-dose screen, 48 h
- Condition Notes: 10 µM unless noted
The panel holds about 83,000 compounds, 20% with a hit somewhere; the sample as a whole holds those more often. Activity calls are given as the source filed them. Rule for the calls: active = growth percent below 10; inactive = the rest.
Possible outcomes: active, inactive

INSERT INTO results (compound, label_value) VALUES
  ('C=C1C(=O)O[C@H]2[C@H]1CC/C(COC(=O)c1cc3cc(OC)ccc3[nH]1)=C\CC[C@@]1(C)O[C@@H]21', 'active'),
  ('O=C1c2cc3c(cc2-c2c1c1ccc(F)cc1c(=O)n2CCCNCCO)OCO3', 'active'),
  ('COc1cc2c(cc1OC)C(Sc1ccc(SC)cc1)c1c(nc(N)c(C#N)c1N)O2 (stereo not given)', 'active'),
  ('CON1C(=O)CC[C@]2(C)[C@H]3CC[C@@H]4C([C@@]5(C)CCC(=O)O5)CC[C@@]4(C)[C@]3(C)CC[C@H]2C1(C)C (stereo not given in full)', 'inactive'),
  ('CC(=O)OCCC/C(=C/c1cc2ccccc2c2ccccc12)[N+](=O)[O-]', 'active'),
  ('CC(=O)O[C@H]1CC[C@]2(C)[C@H]3CC=C4[C@@H]5CC(C)(C)CC[C@]5(C(=O)NCCNCCN)CC[C@@]4(C)[C@]3(C)CC[C@H]2C1(C)C', 'inactive'),
  ('O=C1/C(=C/c2ccccc2O)N=C2SCCCN12', 'inactive'),
  ('COCCNc1ccc2c3c(cccc13)C(=O)N(CCN(C)C)C2=O', 'inactive'),
  ('Cc1ccccc1COc1ccc(-c2onc(C)c2-c2ccc(Cl)cc2)cc1', 'inactive'),
  ('Fc1ccc2[nH]cc(SSc3c[nH]c4ccc(F)cc34)c2c1', 'inactive'),
  ('Cc1ccc(NC(=O)C2CCC(CN3CCN(C)CC3)CC2)cc1Nc1nccc(-c2cccnc2)n1 (stereo not given)', 'inactive'),
  ('O=C(N/N=C/c1c[nH]c2ccccc12)c1cc(-c2ccccc2)on1', 'inactive'),
  ('COc1ccc(-c2nn(-c3ccc(Cl)cc3)cc2-c2nc3ccccc3[nH]2)cc1', 'inactive'),
  ('O=[N+]([O-])c1cnc(N2CCN(CC3CC3)CC2)nc1N1CCN(CC2CC2)CC1', 'inactive'),
  ('CC(C)C[C@@H](NC(=O)[C@@H](Cc1ccccc1)NC(=O)c1cnccn1)B1Oc2ccc(C[C@H](NC(=O)[C@H](Cc3ccc4c(c3)OB([C@@H](CC(C)C)NC(=O)[C@@H](Cc3ccccc3)NC(=O)c3cnccn3)O4)NC(=O)[C@@H](N)CC3CCC4OB([C@@H](CC(C)C)NC(=O)[C@@H](CC5CCCCC5)NC(=O)C5CNCCN5)OC4C3)C(=O)NCCCC[C@@H]3NC(=O)[C@@H](Cc4ccccc4)NC(=O)[C@H](CC(=O)O)NC(=O)CNC(=O)[C@H](CCCNC(=N)N)NC3=O)cc2O1 (stereo not given in full)', 'active'),
  ('c1ccc(Cn2cc(-c3nc4ccccc4s3)c3cccnc32)cc1', 'inactive'),
  ('CC[C@@H](C(=O)[C@@H](C)[C@@H](O)[C@H](C)[C@@H]1O[C@@H]([C@@H](CC)C(=O)O)CC[C@@H]1C)[C@H]1OC2(C=C[C@@H](O)[C@]3(CC[C@@](C)([C@H]4CC[C@](O)(CC)[C@H](C)O4)O3)O2)[C@H](C)C[C@@H]1C (stereo not given in full)', 'active'),
  ('CCOC(=O)c1sc2nc(-c3cccc(OC)c3)nc(N3CCOCC3)c2c1C', 'inactive'),
  ('Cc1ccc(OC(=O)c2ccc(Cl)cc2)cc1', 'inactive'),
  ('C=CC(=O)Nc1cccc(-c2nc(SC)nc(NCCN3CCOCC3)c2C#N)c1', 'inactive');

====

- System: A549/ATCC NSCLC
- Test Details: NCI-60 one-dose screen, 48 h (100 = growth as untreated, 0 = no growth, -100 = all killed)
- Condition Notes: 10 µM unless noted
The panel holds about 83,000 compounds, 20% with a hit somewhere; the sample as a whole holds those more often.
Readout Kind: growth (%)

INSERT INTO results (compound, reading) VALUES
  ('C=C1C(=O)O[C@H]2[C@H]1CC/C(COC(=O)c1cc3cc(OC)ccc3[nH]1)=C\CC[C@@]1(C)O[C@@H]21', -73.9),
  ('CCCCn1cnc2c(Sc3c([N+](=O)[O-])ncn3C)nc(N)nc21', 88.2),
  ('CCNC(=O)Oc1ccc(/C(=C(\C)c2ccc(Cl)cc2)c2ccc(OCCN3CCCCC3)cc2)cc1', 46.1),
  ('O=C(O)COc1ccc(Cl)cc1C1CCCCC1', 93.2),
  ('Fc1ccc(CNc2cccc3[nH]c(C(F)(F)F)nc23)cc1', 89.2),
  ('CC(=O)O[C@H]1CC[C@]2(C)[C@H]3CC=C4[C@@H]5CC(C)(C)CC[C@]5(C(=O)NCCNCCN)CC[C@@]4(C)[C@]3(C)CC[C@H]2C1(C)C', -71.1),
  ('Cc1ccc(C2Oc3ccccc3C3CC(c4cccs4)=NN32)cc1 (configuration not stated)', 103),
  ('Clc1ccc2nc3nc4ccc[nH]c4cc3c2c1', 79.2),
  ('Oc1cccc2ccc(N/N=C/c3cc(CN4CCOCC4)c(O)c4ncccc34)nc12', 5.15),
  ('Nc1ccc(-c2cc3c(NCc4ccccc4)ncnc3s2)cc1', 70.9),
  ('Cc1ccc(C(SCC(N)C(=O)O)(c2ccccc2)c2ccc(C)cc2)cc1 (configuration not stated)', -2.96),
  ('O=c1cc(/C(=C2/C=CC=N2)c2ccc[nH]2)c2cc(Cl)ccc2o1', 55.2),
  ('C=C1c2nc3ccccc3n2C=C(c2ccc(OC)cc2)N1Cc1ccccc1', 96),
  ('O=C(CCl)Oc1ccc(-c2ccccc2)c(Br)c1', 106),
  ('C#CC(F)(F)[C@]1(O)CC[C@H]2[C@@H]3CCC4=CC(=O)CCC4=C3[C@@H](c3ccc(C4CC4)cc3)C[C@@]21C', 11.5),
  ('COc1ccc(/C=C/c2nc(-c3n[nH]c(=O)n3-c3ccccc3)c3ccccc3n2)cc1', 99.9),
  ('Cc1cc(N2CCCCC2)nc(NC2CCCC(Nc3ccnc4cc(Cl)ccc34)C2)n1 (configuration not stated)', -23.7),
  ('C=CC(=O)Nc1cccc(-c2nc(SC)nc(NCc3ccccc3)c2C#N)c1', 53.4),
  ('CN1CCN(CCCOc2cccc3nc(Nc4cc(Cl)cc(Cl)c4)ccc23)CC1', 0.988),
  ('NC(=O)c1cc(I)ccc1NC(=O)/C=C/c1ccccc1Cl', 15.7),
  ('CN(C)c1ccc(N=Nc2ccc(Br)cn2)c(O)c1', 10.3),
  ('FC(F)(F)c1[nH]ncc1-c1nc2ccc3n[nH]c(C#Cc4cccnc4)c3c2c2c1CCCC2', 27);
